Target: Nuclear hormone receptor isoform A (Strongyloides stercoralis)
Sequence (whole entry): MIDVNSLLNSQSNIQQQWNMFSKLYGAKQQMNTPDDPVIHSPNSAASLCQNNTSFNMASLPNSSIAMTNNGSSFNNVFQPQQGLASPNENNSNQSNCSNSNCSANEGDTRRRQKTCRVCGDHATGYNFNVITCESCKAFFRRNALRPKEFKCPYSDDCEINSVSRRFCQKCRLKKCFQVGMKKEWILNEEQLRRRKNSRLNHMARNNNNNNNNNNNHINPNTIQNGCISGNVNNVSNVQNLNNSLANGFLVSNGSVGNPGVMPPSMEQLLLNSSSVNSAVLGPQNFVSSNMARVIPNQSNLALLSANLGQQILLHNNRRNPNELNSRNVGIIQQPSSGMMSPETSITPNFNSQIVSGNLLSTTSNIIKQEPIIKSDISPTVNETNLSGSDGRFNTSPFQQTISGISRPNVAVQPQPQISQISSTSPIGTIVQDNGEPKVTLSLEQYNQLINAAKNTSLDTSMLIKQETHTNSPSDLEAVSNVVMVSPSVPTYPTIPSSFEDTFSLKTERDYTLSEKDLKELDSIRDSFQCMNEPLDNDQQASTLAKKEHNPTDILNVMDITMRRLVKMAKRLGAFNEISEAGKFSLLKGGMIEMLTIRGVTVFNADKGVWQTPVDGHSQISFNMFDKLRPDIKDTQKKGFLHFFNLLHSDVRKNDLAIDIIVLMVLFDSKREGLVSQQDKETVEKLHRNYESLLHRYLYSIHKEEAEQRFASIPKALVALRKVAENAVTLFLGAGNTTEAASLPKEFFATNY
Test: Agonist activity at GST-tagged Strongyloides stercoralis DAF-12 LBD incubated for 0.5 hrs in presence of biotinylated SRC1 and SRC2 by Alphascreen assay relative to control
Conditions: filed as agonist
REPORTED PROPERTY: Emax (%)

Some compounds with known Emax results, for comparison:
C[C@H](CCC[C@H](C)C(=O)O)[C@H]1CC[C@H]2C3=CC[C@H]4CC(=O)CC[C@]4(C)C3CC[C@]12C (some centres undefined)    100
C[C@H](CCC[C@H](C)C(=O)NS(C)(=O)=O)[C@H]1CC[C@H]2C3=CC[C@H]4CC(=O)CC[C@]4(C)C3CC[C@]12C (some centres undefined)    85

I = C[C@H](CCC[C@H](C)C(=O)NS(=O)(=O)N(C)C)[C@H]1CC[C@H]2C3=CC[C@H]4CC(=O)CC[C@]4(C)C3CC[C@]12C (some centres undefined)
II = Cc1ccc(S(=O)(=O)NC(=O)[C@@H](C)CCC[C@@H](C)[C@H]2CC[C@H]3C4=CC[C@H]5CC(=O)CC[C@]5(C)C4CC[C@]23C)cc1 (some centres undefined)
Prompt: Hello, I am sorting some records. Could you say if I or II has the smaller Emax value? Give the label of your selection.
Completion: II
(II: 40%, I: 95%)

* * *

Experiment: Metabolic stability in human liver microsome assessed as parent compound remaining measured for 30 mins by LC-MS analysis
Assay type: ADME
Settings: human liver microsomes, read-out: Stability
REPORTED PROPERTY: remaining at 0.5 h (%)
# output: bare number, implied unit %

Prompt: What does the record list as remaining at 0.5 h for C[C@H](CCC[C@H](C)C(=O)O)[C@H]1CC[C@H]2C3=CC[C@H]4CC(=O)CC[C@]4(C)C3CC[C@]12C (stereo partly specified) ?
Completion: 50

* * *

Experiment: Metabolic stability in human liver microsome assessed as half life measured for 30 mins by LC-MS analysis
Assay type: ADME
Settings: human liver microsomes
REPORTED PROPERTY: half-life (min)
# output: bare number, implied unit min

Prompt: What does the record list as half-life for C[C@H](CCC[C@H](C)C(=O)O)[C@H]1CC[C@H]2C3=CC[C@H]4CC(=O)CC[C@]4(C)C3CC[C@]12C (stereo partly specified) ?
Completion: 17

* * *

Experiment: Kinetic solubility of compound at pH 7.4 by HPLC/MS analysis
Type: physicochemical
Conditions: buffer, read-out: Kinetic_solubility
REPORTED PROPERTY: solubility kinetic (µM)
# output: bare number, implied unit µM

Prompt: What does the record list as solubility kinetic for C[C@H](CCC[C@H](C)C(=O)O)[C@H]1CC[C@H]2C3=CC[C@H]4CC(=O)CC[C@]4(C)C3CC[C@]12C (some centres not stated) ?
Completion: 4

* * *

Target: Nuclear hormone receptor isoform A (Strongyloides stercoralis)
Sequence (A0A0K0EQJ4 whole entry): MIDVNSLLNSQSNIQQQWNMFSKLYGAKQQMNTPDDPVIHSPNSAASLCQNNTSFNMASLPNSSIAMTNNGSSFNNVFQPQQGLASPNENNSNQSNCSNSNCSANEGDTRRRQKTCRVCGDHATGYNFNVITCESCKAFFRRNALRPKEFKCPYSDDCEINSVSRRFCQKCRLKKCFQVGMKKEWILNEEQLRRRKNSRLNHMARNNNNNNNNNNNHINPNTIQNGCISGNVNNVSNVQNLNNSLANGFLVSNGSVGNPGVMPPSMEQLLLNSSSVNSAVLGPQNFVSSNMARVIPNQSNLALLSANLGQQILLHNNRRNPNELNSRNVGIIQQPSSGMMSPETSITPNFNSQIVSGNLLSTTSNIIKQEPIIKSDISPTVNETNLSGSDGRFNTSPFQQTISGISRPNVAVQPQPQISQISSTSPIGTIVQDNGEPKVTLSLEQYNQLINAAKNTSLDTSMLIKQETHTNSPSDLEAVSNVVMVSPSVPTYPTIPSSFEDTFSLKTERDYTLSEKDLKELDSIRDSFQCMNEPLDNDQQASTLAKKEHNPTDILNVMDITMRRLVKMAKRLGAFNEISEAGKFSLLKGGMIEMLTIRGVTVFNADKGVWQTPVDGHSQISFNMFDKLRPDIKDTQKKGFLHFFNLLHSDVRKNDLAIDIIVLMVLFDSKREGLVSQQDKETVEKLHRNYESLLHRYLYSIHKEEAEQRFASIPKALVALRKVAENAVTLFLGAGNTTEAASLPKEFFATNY
Test: Partial agonist activity at GST-tagged Strongyloides stercoralis DAF-12 LBD incubated for 0.5 hrs in presence of biotinylated SRC1 and SRC2 by Alphascreen assay
REPORTED PROPERTY: EC50 (nM)

CNC(=O)[C@@H](C)CCC[C@@H](C)[C@H]1CC[C@H]2C3=CC[C@H]4CC(=O)CC[C@]4(C)C3CC[C@]12C (stereo partly drawn)    1020

P = C[C@H](CO)CCC[C@@H](C)[C@H]1CC[C@H]2C3=CC[C@H]4CC(=O)CC[C@]4(C)C3CC[C@]12C (stereo partly drawn)
Q = C[C@@H](CCC[C@@H](C)[C@H]1CC[C@H]2C3=CC[C@H]4CC(=O)CC[C@]4(C)C3CC[C@]12C)COS(=O)(=O)O (stereo partly drawn)
Prompt: Hi team, can someone confirm which has the larger EC50: P or Q ? Thanks. Give the label of your selection.
Completion: Q

* * *

Target: Nuclear hormone receptor isoform A (Strongyloides stercoralis)
Experiment: Antagonist activity at GST-tagged Strongyloides stercoralis DAF-12 LBD incubated for 0.5 hrs in presence of biotinylated SRC1 and SRC2 by Alphascreen assay
REPORTED PROPERTY: IC50 (µM)

Some compounds with known IC50 results, for comparison:
C[C@H](CCCC1=C(O)CCC1=O)[C@H]1CC[C@H]2C3=CC[C@H]4CC(=O)CC[C@]4(C)C3CC[C@]12C (stereo partly specified)    16.8
C[C@H](CCc1nn[nH]n1)[C@H]1CC[C@H]2C3=CC[C@H]4CC(=O)CC[C@]4(C)C3CC[C@]12C (stereo partly specified)    6.9
C[C@H](CCc1nnn(C)n1)[C@H]1CC[C@H]2C3=CC[C@H]4CC(=O)CC[C@]4(C)C3CC[C@]12C (stereo partly specified)    10

a = C[C@H](CCc1nnn(C(C)(C)C)n1)[C@H]1CC[C@H]2C3=CC[C@H]4CC(=O)CC[C@]4(C)C3CC[C@]12C (stereo partly specified)
b = C[C@H](CCc1nnn(C(c2ccccc2)(c2ccccc2)c2ccccc2)n1)[C@H]1CC[C@H]2C3=CC[C@H]4CC(=O)CC[C@]4(C)C3CC[C@]12C (stereo partly specified)
c = C[C@H](CCCc1nnn(C)n1)[C@H]1CC[C@H]2C3=CC[C@H]4CC(=O)CC[C@]4(C)C3CC[C@]12C (stereo partly specified)
Prompt: Could you please order the items by IC50, going from the lowest number to the highest? Order the labels as requested and list them.
Completion: a, c, b

* * *

# EC50 listing for each entry below
Biological target: Nuclear hormone receptor isoform A (Strongyloides stercoralis, UniProt A0A0K0EQJ4)
Test: Agonist activity at GST-tagged Strongyloides stercoralis DAF-12 LBD incubated for 0.5 hrs in presence of biotinylated SRC1 and SRC2 by Alphascreen assay

Some compounds with known EC50 results, for comparison:
C[C@H](CCCc1nnn(C)n1)[C@H]1CC[C@H]2C3=CC[C@H]4CC(=O)CC[C@]4(C)C3CC[C@]12C (stereo partly specified)    > 100 µM
C[C@H](CCc1nnn(C)n1)[C@H]1CC[C@H]2C3=CC[C@H]4CC(=O)CC[C@]4(C)C3CC[C@]12C (stereo partly specified)    > 100 µM
C[C@H](CCc1nnn(C(c2ccccc2)(c2ccccc2)c2ccccc2)n1)[C@H]1CC[C@H]2C3=CC[C@H]4CC(=O)CC[C@]4(C)C3CC[C@]12C (stereo partly specified)    > 100 µM
C[C@H](CCCC1=C(O)CCC1=O)[C@H]1CC[C@H]2C3=CC[C@H]4CC(=O)CC[C@]4(C)C3CC[C@]12C (stereo partly specified)    > 100 µM
C[C@H](CCc1nn[nH]n1)[C@H]1CC[C@H]2C3=CC[C@H]4CC(=O)CC[C@]4(C)C3CC[C@]12C (stereo partly specified)    > 100 µM

# evaluate next
Prompt: What does the record list as EC50 for C[C@H](CCc1nnn(C(C)(C)C)n1)[C@H]1CC[C@H]2C3=CC[C@H]4CC(=O)CC[C@]4(C)C3CC[C@]12C (stereo partly specified) ?
Completion: > 100 µM
